inhibition at 50 µg/mL reference
Test system: Sclerotinia sclerotiorum (Lib.) de Bary
TEST SUMMARY: microbe, parasite or virus in culture
RUN CONDITIONS: read-out: Inhibition Ratio (%) / S. sclerotiorum

| COMPOUND | inhibition at 50 µg/mL (%) |
| --- | --- |
| CO[C@H]1[C@@H](Cn2cc(-c3ccc(F)cc3)nn2)OC(O)[C@@H]1O (stereo partly drawn) | 38.4 |
| CC(O)c1cn(C[C@H]2OC(O)[C@H](O)[C@H]2OCc2ccccc2)nn1 (stereo partly drawn) | 13.5 |
| CO[C@H]1[C@@H](Cn2cc(-c3ccc([N+](=O)[O-])cc3)nn2)OC(OC(C)=O)[C@@H]1OC(C)=O (stereo partly drawn) | 64.9 |
| Cc1cccc(-c2cn(C[C@H]3OC(O)[C@H](O)[C@H]3OCc3ccccc3)nn2)c1 (stereo partly drawn) | 29.9 |
| CO[C@H]1[C@@H](Cn2cc(-c3ccc(F)cc3)nn2)OC(OC(C)=O)[C@@H]1OC(C)=O (stereo partly drawn) | 67.6 |
| CO[C@H]1C(Cn2cc(-c3ccccc3)nn2)OC(OC(C)=O)[C@@H]1OC(C)=O (stereo partly drawn) | 57.6 |
| OC1O[C@H](Cn2cc(-c3ccccc3)nn2)[C@H](OCc2ccccc2)[C@H]1O (stereo partly drawn) | 26.4 |
| CO[C@H]1[C@@H](Cn2cc(C(C)O)nn2)OC(O)[C@@H]1O (stereo partly drawn) | 13.7 |
| COc1ccc(-c2cn(C[C@H]3OC(OC(C)=O)[C@H](OC(C)=O)[C@H]3OC)nn2)cc1 (stereo partly drawn) | 43.1 |
| CO[C@@H]1[C@H]2OC(C)(C)O[C@H]2O[C@@H]1Cn1cc(-c2ccc(Cl)cc2)nn1 | 85.1 |
| CC(=O)OC1O[C@H](Cn2cc(-c3ccc(F)cc3)nn2)[C@H](OCc2ccccc2)[C@H]1OC(C)=O (stereo partly drawn) | 64.7 |
| CO[C@H]1[C@@H](Cn2cc(-c3cccc(C)c3)nn2)OC(O)[C@@H]1O (stereo partly drawn) | 28.4 |

---

inhibition at 50 µg/mL reference
System: Botrytis cinerea Pers
TEST SUMMARY: microbe, parasite or virus in culture
RUN CONDITIONS: read-out: Inhibition Ratio (%) / B. cinerea

| MOLECULE | inhibition at 50 µg/mL, % |
| --- | --- |
| N#Cc1c(Cl)c(Cl)c(Cl)c(C#N)c1Cl [Chlorothalonil] | 98 |
| CO[C@H]1[C@@H](Cn2cc(-c3ccc(Cl)cc3)nn2)OC(O)[C@@H]1O (stereo partly drawn) [3-f, Furan glucosyl-1,2,3-triazole (3-f)] | 20.5 |
| CO[C@H]1C(Cn2cc(-c3ccccc3)nn2)OC(OC(C)=O)[C@@H]1OC(C)=O (stereo partly drawn) [5-a, Furan glucosyl-1,2,3-triazole (5-a)] | 36.1 |
| CC(=O)OC1O[C@H](Cn2cc(-c3ccc([N+](=O)[O-])cc3)nn2)[C@H](OCc2ccccc2)[C@H]1OC(C)=O (stereo partly drawn) [6-e, Furan glucosyl-1,2,3-triazole (6-e)] | 27.4 |
| CC(=O)OC1O[C@H](Cn2cc(-c3ccc(F)cc3)nn2)[C@H](OCc2ccccc2)[C@H]1OC(C)=O (stereo partly drawn) [6-d, Furan glucosyl-1,2,3-triazole (6-d)] | 26.7 |
| COc1ccc(-c2cn(C[C@H]3OC(O)[C@H](O)[C@H]3OC)nn2)cc1 (stereo partly drawn) [3-c, Furan glucosyl-1,2,3-triazole (3-c)] | 10.4 |
